# System: NCI-H23 lung
# PROTOCOL SUMMARY: NCI-60 one-dose screen, 48 h (100 = growth as untreated, 0 = no growth, -100 = all killed)
# CONDITION LABEL: 10 µM unless noted
About 83,000 compounds went through this panel and 20% of them were active in at least one assay; those are over-represented in the sample as a whole.
MEASURED QUANTITY: growth (%)
# output: bare number, implied unit %

These solved cases illustrate the format of a correct answer.
MOLECULE: Nc1nc(N)c2c(n1)NC(c1ccccc1)CC(c1ccc(Nc3nc(NCCO)nc(Nc4ccc(Cl)cc4)n3)cc1)=N2 (stereo unspecified)
growth / %: 41.2

MOLECULE: COc1ccc(-c2nn(-c3ccccc3)cc2/C=C/C(=O)c2ccc(NC(=O)CCCCCCC(=O)NO)cc2)cc1
growth / %: 113

MOLECULE: O=C(Nc1cccc(Cl)c1)Nc1nc2ccc(-c3cccc4ccccc34)cc2s1
growth / %: 24.6

MOLECULE: COc1ccc(-c2oc3cc(O)cc(O)c3c(=O)c2OC)cc1O
growth / %: 25.7

Incoming: Would you kindly share the measured growth for Cc1cc(=O)n2nc(-c3cn(C)c4ccc(Cl)cc34)sc2n1 ?
Outgoing: 92.1

Incoming: Would you kindly share the measured growth for O=C1Nc2cc(OC(F)(F)F)ccc2Oc2ccc(-c3ccnc(N4CCNCC4)c3)cc21 ?
Outgoing: 27.4

* * *

# growth listing for each entry below
# Test system: ACHN renal
# PROTOCOL SUMMARY: NCI-60 one-dose screen, 48 h (100 = growth as untreated, 0 = no growth, -100 = all killed)
# CONDITION LABEL: 10 µM unless noted
The panel holds about 83,000 compounds, 20% with a hit somewhere; the sample as a whole holds those more often.
# output: bare number, implied unit %

These solved cases illustrate the format of a correct answer.
MOLECULE: COc1cc(CNC(=O)/C=C/c2ccccc2)ccc1OCC(=O)NO
VAL: 93.3
--
MOLECULE: Oc1ccc(CSc2nnc(-c3ccc(Br)cc3)o2)c2cccnc12
VAL: 17.8
--
MOLECULE: O=C1c2c(c3c4ccc(Br)cc4oc3c3[nH]c4ccccc4c23)C(=O)N1CCO
VAL: 12
--
MOLECULE: CN(C)c1ccc(/C=N/Nc2nc(N/N=C/c3ccc(N(C)C)cc3)nc(N3CCOCC3)n2)cc1
VAL: 104
--
MOLECULE: O=C(CCCCCCN1CC(=O)N2[C@@H](c3cc(F)cc(F)c3)c3[nH]c4ccccc4c3C[C@H]2C1=O)NO
VAL: 88.8

Incoming: Lab note: need growth for N/C(=N\OC(=O)CSc1nc2ccccc2s1)c1ccc2ccccc2c1 on ACHN renal, anyone have it?
Outgoing: 91

Incoming: Lab note: need growth for O=C(Nc1cccc(Cl)c1)Nc1nc2ccc(-c3cccc4ccccc34)cc2s1 on ACHN renal, anyone have it?
Outgoing: 40.3

Incoming: Lab note: need growth for O=S(=O)(Nc1ccc(-n2cnc3cc(-c4ccc(O)cc4)ccc32)cc1)C1CC1 on ACHN renal, anyone have it?
Outgoing: 78.1

* * *

# Tested on: 786-0 renal
# PROTOCOL SUMMARY: NCI-60 one-dose screen, 48 h
# CONDITION LABEL: 10 µM unless noted
This is part of a sample that, as a whole, favours compounds with a hit. Of some 83,000 tested, about 20% had one in any assay. Activity calls are given as the source filed them. How the source made its calls: active means growth percent below 10; inactive means the rest.
Hi! Could you answer with just one of these? active, inactive

Some solved entries appear below for comparison.
MOLECULE: COc1cc(NC2=C(Cl)C(=O)c3nc(C)ccc3C2=O)cc(OC)c1
ASSIGNED LABEL: active

MOLECULE: CCOC(=O)Nc1ccc(-c2nc(-c3cccc(O)c3)c(-c3ccnc(Br)c3)[nH]2)cc1
ASSIGNED LABEL: inactive

MOLECULE: O=S(=O)(Nc1cc(Cl)c(F)c(Cl)c1)c1ccc(-c2cnc(C3CC3)o2)cc1
ASSIGNED LABEL: inactive

MOLECULE: CCCCCCNC(=O)Oc1ccc(/C(=C(\C)c2ccc(OC)cc2)c2ccc(OCCN(C)C)cc2)cc1
ASSIGNED LABEL: inactive

MOLECULE: C=C1C(=O)O[C@@H]2/C=C(/C)C3=CC(=O)[C@@](C)(C[C@H](OC(=O)/C(C)=C\C)[C@@H]12)O3
ASSIGNED LABEL: active

MOLECULE: O=c1cc(-c2ccccc2)nc2sc(-c3c[nH]c4ccc(Br)cc34)nn12
ASSIGNED LABEL: inactive

MOLECULE: O=C(CCCCCCN1CC(=O)N2[C@@H](c3cc(F)cc(F)c3)c3[nH]c4ccccc4c3C[C@H]2C1=O)NO
ASSIGNED LABEL: inactive

MOLECULE: O=S(=O)(NC1CC2CCC1C2)c1ccc2c(c1)C(=NO)c1cc(S(=O)(=O)NC3CC4CCC3C4)ccc1-2 (stereo unspecified)
ASSIGNED LABEL: inactive

Incoming: Test call, this molecule: CC1=C2C(=C[C@@](C)(COS(N)(=O)=O)[C@@H]2O)C(=O)[C@](C)(O)C12CC2
Outgoing: inactive

Incoming: Test call, this molecule: Cc1cn(-c2cc(NC(=O)c3cncc(C#Cc4cnc5ccc(O[C@H]6CCOC6)nn45)c3)cc(C(F)(F)F)c2)cn1
Outgoing: inactive

Incoming: Test call, this molecule: Oc1ccc(CSc2nnc(-c3ccc(Br)cc3)n2-c2ccccc2)c2cccnc12
Outgoing: inactive

Incoming: Test call, this molecule: CC(C)C(=O)Nc1ccc(-c2nc(-c3cccc(O)c3)c(-c3ccnc(Br)c3)[nH]2)cc1
Outgoing: inactive
